run_description: qHTS assay to test for compound auto fluorescence at 460 nm (blue) in HepG2 cell free culture (AID 720685)
protocol_conditions: Cell-free culture medium, blue autofluorescence 405/460 nm; series mostly up to 91.3 µM
Calls of active or inactive are those of the source. The call rests on the fitted dose curve; in most records, active means well fitted curve in the direction sought with a large enough effect in the repeat runs; inconclusive means weak or mixed curves; inactive means flat fitted curve, though single readings scatter.
outcome_measure: fluorescence, % of fluorescent control

Use the examples below as a reference point.
INSERT INTO results (compound, experimental_result) VALUES
  ('O=[N+]([O-])c1cccc2c([N+](=O)[O-])cccc12', 'inactive'),
  ('CC(=O)C(Cl)Cl', 'inactive'),
  ('CN(C)CCc1ccc(O)cc1', 'inactive'),
  ('C=CC1CC=CCC1 (configuration not stated)', 'inactive'),
  ('COP(=S)(OC)Oc1ccc(S(N)(=O)=O)cc1', 'inactive'),
  ('CC(C)(C)C(=O)C(Oc1ccc(Cl)cc1)n1cncn1 (configuration not stated)', 'inactive');

With those in mind, consider the next compound.
For reference, reported fluorescence, % of fluorescent control for CCOC(=O)/C=C(C)/C=C/C[C@@H](C)CCCC(C)C stands at inactive

* * *

assayed_target: Acetylcholinesterase (Homo sapiens)
run_description: Acetylcholinesterase (AChE) small molecule antagonists: colormetric cell-based qHTS assay (AID 1347395); further: nearly all actives have a fitted effect of over 30% in size; further: potency means the concentration at half of the fitted maximal effect
protocol_conditions: SH-SY5Y cells AChE activity, colorimetric (Ellman); series mostly up to 115 µM
Records with an inconclusive call do not appear. Calls of active or inactive are those of the source. Calls follow the shape of the full dose curve.
outcome_measure: Potency

INSERT INTO assay_data (compound, experimental_result) VALUES
  ('CNCC(=O)c1ccc(O)c(O)c1', 'inactive'),
  ('ClCCOCOCCCl', 'inactive'),
  ('Cc1nc(N)nc(N)n1', 'inactive'),
  ('CCOP(=S)(OCC)Oc1cc(-c2ccccc2)on1', '63.3 µM (active)'),
  ('CCC/C(=N\OCC)C1=C(O)CC(CC(C)SCC)CC1=O (centres undefined)', 'inactive'),
  ('ClCC(Cl)(Cl)Cl', 'inactive');

Potency for Acetylcholinesterase (Homo sapiens) with input COc1ccc2c(c1OC)CN1CCc3cc4c(cc3C1C2)OCO4 (centres undefined) equals 8.71 µM (active)

Potency for Acetylcholinesterase (Homo sapiens) with input COC(=O)c1ccccc1S(=O)(=O)NC(=O)N(C)c1nc(C)nc(OC)n1 equals inactive

Potency for Acetylcholinesterase (Homo sapiens) with input CCc1cc2c(s1)-n1c(C)nnc1CN=C2c1ccccc1Cl equals inactive

Potency for Acetylcholinesterase (Homo sapiens) with input BrCCCCCCBr equals 63.3 µM (active)

Potency for Acetylcholinesterase (Homo sapiens) with input Cc1ncc2n1-c1ccc(Cl)cc1C(c1ccccc1F)=NC2 equals inactive

Potency for Acetylcholinesterase (Homo sapiens) with input NC(=S)C(N)=S equals inactive

Potency for Acetylcholinesterase (Homo sapiens) with input COC(=O)c1c(C(F)F)nc(C(F)(F)F)c(C2=NCCS2)c1CC(C)C equals inactive

Potency for Acetylcholinesterase (Homo sapiens) with input CC(C)COP(=O)(OCC(C)C)OCC(C)C equals inactive

* * *

run_description: qHTS assay to identify small molecule antagonists of the thyroid receptor (TR) signaling pathway - cell viability counter screen (AID 743064); further: nearly all actives have a fitted effect of over 50% in size
protocol_conditions: GH3.TRE-Luc viability, CellTiter-Fluor, 24 h; series mostly up to 70.3 µM
Records with an inconclusive call do not appear. The source made the active and inactive calls. The call rests on the fitted dose curve; in most records, active means well fitted cell-killing curve with a large enough effect in the repeat runs; inconclusive means weak or mixed curves, or effect the other way; inactive means no such curve, though single readings can be large or run the other way.
outcome_measure: outcome

Use the examples below as a reference point.
INSERT INTO measurements (compound, experimental_result) VALUES
  ('ClC(Cl)C(Cl)Cl', 'inactive'),
  ('O=C(O)c1cccc(Cl)c1', 'inactive'),
  ('C[C@@H]1CN(C2CCC(C#N)(c3ccc(F)cc3)CC2)CC[C@]1(C(=O)O)c1ccccc1 (some centres undefined)', 'inactive'),
  ('ClCC(Cl)(Cl)Cl', 'inactive'),
  ('O=[N+]([O-])c1ccc(CBr)cc1', 'inactive');

For reference, reported outcome for Fc1ccc(C2(Cn3cncn3)OC2c2ccccc2Cl)cc1 (centres undefined) stands at inactive

For reference, reported outcome for ClC(Br)Br stands at inactive

For reference, reported outcome for CCc1cc2c(s1)-n1c(C)nnc1CN=C2c1ccccc1Cl stands at inactive

For reference, reported outcome for CCC(C)(C)c1cc(-n2nc3ccccc3n2)c(O)c(C(C)(C)CC)c1 stands at inactive
